Parameter: % Phosphatase Activity (compared to DMSO) PRL-1. Scope: all listed entries.
Biological target: recombinant PRL-1 (Homo sapiens, UniProt Q93096)
Construct: 6xHis (N, cleaved yes); made in house; host or cells: E. coli One Shot BL21 Star
Sequence (Q93096 1-173): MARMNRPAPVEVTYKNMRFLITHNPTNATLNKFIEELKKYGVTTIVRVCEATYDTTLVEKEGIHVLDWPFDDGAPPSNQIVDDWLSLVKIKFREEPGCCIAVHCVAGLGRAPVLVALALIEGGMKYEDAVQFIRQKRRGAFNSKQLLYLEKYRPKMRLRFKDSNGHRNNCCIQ
Assay: In vitro phosphatase assay (DiFMUP hydrolysis), PRL-1; further: test concentration or dose not given here
Assay type: biochemical
Details: FDA-approved drug screen; compared to DMSO
Structures can show the parent of a compound that is named as a salt.
Entry rule: numbers only, all in %.

Worked examples, 5 compounds total:
compound: CN(C)Cc1ccc(S(=O)(=O)n2ccc(/C=C/C(=O)NO)c2)cc1
reported result: 102
--
compound: COc1ccc2[nH]c([S+]([O-])Cc3ncc(C)c(OC)c3C)nc2c1 (centres unmarked)
reported result: 89
--
compound: COc1cc2ncnc(Nc3ccc(F)c(Cl)c3)c2cc1OCCCN1CCOCC1 [Gefitinib (ZD1839)]
reported result: 93
--
compound: COc1cc2ncnc(Nc3ccc(F)c(Cl)c3)c2cc1NC(=O)/C=C/CN1CCCCC1
reported result: 145
--
compound: Br.COc1ccc2c(c1)[C@]13CCCC[C@@H]1[C@H](C2)N(C)CC3.O [Dextromethorphan (hydrobromide hydrate)]
reported result: 104

# input Tell me reported % Phosphatase Activity (compared to DMSO) PRL-1 for Nc1nc(=O)c2c([nH]1)NC[C@H](CNc1ccc(C(=O)N[C@@H](CCC(=O)[O-])C(=O)[O-])cc1)N2C=O.[Ca+2] [Calcium Levofolinate] , tested with recombinant PRL-1 (Homo sapiens, UniProt Q93096).
# output 96

# input What do we get for NC[C@@H]1O[C@H](O[C@H]2[C@@H](O)[C@H](O[C@@H]3[C@@H](O)[C@H](N)C[C@H](N)[C@H]3O[C@H]3O[C@H](CO)[C@@H](O)[C@H](O)[C@H]3N)O[C@@H]2CO)[C@H](N)[C@@H](O)[C@@H]1O [Paromomycin Sulfate] ?
# output 93

====

target: recombinant PRL-1 (Homo sapiens); construct: 6xHis (N, cleaved yes); made in house; host or cells: E. coli One Shot BL21 Star; experiment: In vitro phosphatase assay (DiFMUP hydrolysis), PRL-1; format: biochemical; further: test concentration or dose not given here
Where a name gives a salt, the structure may show the parent alone.
Attribute: % Phosphatase Activity (compared to DMSO) PRL-1
Quick note: give the figure in %, leave out the unit.

compound: CCCCC(CC)COC(=O)CC(C(=O)OCC(CC)CCCC)S(=O)(=O)O (stereo not drawn) [Docusate Sodium, reference compound]
reported result: 64

compound: Oc1ccc(O)cc1 [Hydroquinone]
reported result: 90

compound: NC(CO)(CO)CO
reported result: 102

# input Form field - read-out: % Phosphatase Activity (compared to DMSO) PRL-1; system: recombinant PRL-1 (Homo sapiens); submitted item: Cn1cnc([N+](=O)[O-])c1Sc1ncnc2nc[nH]c12
# output 96

# input Next entry: CNCC[C@H](Oc1cccc2ccccc12)c1cccs1 [Duloxetine HCl]
# output 97

# input Can you handle CC(C)OC(=O)[C@H](C)N[P@](=O)(CO[C@H](C)Cn1cnc2c(N)ncnc21)Oc1ccccc1 [Tenofovir Alafenamide (GS-7340)] next?
# output 94

# input Next entry: COc1nc(N)nc2c1ncn2[C@@H]1O[C@H](CO)[C@@H](O)[C@@H]1O
# output 93

# input Please do the same for Cc1cccc([C@H](C)c2cnc[nH]2)c1C as well.
# output 98

# input Then Clc1cccc(Cl)c1N=C1NCCN1 [Clonidine HCl] ?
# output 118
